experiment: In-vitro intrinsic dissolution of 200 mg pellets of API without excipients; type: physicochemical; details: 210 min; Table 8; 200 mg pellet, 0.01N HCl, 37° C., paddle 75 rpm
measurement-name: % release of Compound (I) from the respective Salts (%)
All answers are understood in %, so give the number only.

Exercise: Give the reported value of % release of Compound (I) from the respective Salts for this record: CC(Cn1cnc2c(N)ncnc21)OCP(=O)(OCOC(=O)C(C)(C)C)Oc1ccccc1.O=C(O)C(O)C(O)C(=O)O (stereo not drawn) [Tartrate]
Solution: 80

Exercise: State, in one line, measured % release of Compound (I) from the respective Salts of CC(Cn1cnc2c(N)ncnc21)OCP(=O)(OCOC(=O)C(C)(C)C)Oc1ccccc1.O=C(O)C(=O)O (stereo not drawn) [Oxalate]
Solution: 53

Exercise: Specify measured % release of Compound (I) from the respective Salts for CC(Cn1cnc2c(N)ncnc21)OCP(=O)(OCOC(=O)C(C)(C)C)Oc1ccccc1.O=C(O)CCC(=O)O (stereo not drawn) [Succinate] .
Solution: 90

Exercise: Identify measured % release of Compound (I) from the respective Salts associated with CC(Cn1cnc2c(N)ncnc21)OCP(=O)(OCOC(=O)C(C)(C)C)Oc1ccccc1.O=C(O)/C=C/C(=O)O (stereo not drawn) [Fumarate]
Solution: 75

Exercise: Give reported % release of Compound (I) from the respective Salts value for CC(Cn1cnc2c(N)ncnc21)OCP(=O)(OCOC(=O)C(C)(C)C)Oc1ccccc1.O=P(O)(O)O (stereo not drawn) [Phosphate]
Solution: 104

Exercise: Please look at this compound and report its % release of Compound (I) from the respective Salts: CC(Cn1cnc2c(N)ncnc21)OCP(=O)(OCOC(=O)C(C)(C)C)Oc1ccccc1.O=C(O)CC(O)(CC(=O)O)C(=O)O (stereo not drawn) [Citrate]
Solution: 66

====

assay: In-vitro intrinsic dissolution of 200 mg pellets of API without excipients; type: physicochemical; settings: 15 min; Table 8; 200 mg pellet, 0.01N HCl, 37° C., paddle 75 rpm
I'd appreciate it if you could supply % release of Compound (I) from the respective Salts values for the items below.
Remember to follow the number with its unit.

Exercise: Return the recorded % release of Compound (I) from the respective Salts value; entry: CC(Cn1cnc2c(N)ncnc21)OCP(=O)(OCOC(=O)C(C)(C)C)Oc1ccccc1.O=C(O)/C=C/C(=O)O (stereo not drawn) [Fumarate]
Solution: 7%

Exercise: Answer with reported % release of Compound (I) from the respective Salts of CC(Cn1cnc2c(N)ncnc21)OCP(=O)(OCOC(=O)C(C)(C)C)Oc1ccccc1.O=C(O)C(=O)O (stereo not drawn) [Oxalate]
Solution: 4%

Exercise: Recall and state the measured % release of Compound (I) from the respective Salts for CC(Cn1cnc2c(N)ncnc21)OCP(=O)(OCOC(=O)C(C)(C)C)Oc1ccccc1.O=P(O)(O)O (stereo not drawn) [Phosphate] .
Solution: 59%

Exercise: Quickly give me recorded % release of Compound (I) from the respective Salts for CC(Cn1cnc2c(N)ncnc21)OCP(=O)(OCOC(=O)C(C)(C)C)Oc1ccccc1.O=C(O)CC(O)(CC(=O)O)C(=O)O (stereo not drawn) [Citrate]
Solution: 12%

Exercise: Quote % release of Compound (I) from the respective Salts reported for CC(Cn1cnc2c(N)ncnc21)OCP(=O)(OCOC(=O)C(C)(C)C)Oc1ccccc1.O=C(O)CCC(=O)O (stereo not drawn) [Succinate] please.
Solution: 3%

Exercise: Input CC(Cn1cnc2c(N)ncnc21)OCP(=O)(OCOC(=O)C(C)(C)C)Oc1ccccc1.O=C(O)C(O)C(O)C(=O)O (stereo not drawn) [Tartrate] , output reported % release of Compound (I) from the respective Salts.
Solution: 6%

The values you see were collected from patent US11390637B2.
